assay: NCI Yeast Anticancer Drug Screen. Data for the mlh1 rad18 strain (AID 175); conditions: S. cerevisiae mlh1 rad18 strain growth inhibition; at 50.0 µM (retest, dose inferred, filed as 5.0)
The panel holds about 79,000 compounds, 15% with a hit somewhere; the sample as a whole holds those more often. Activity calls are given as the source filed them. Cut-off read from the data, not from the text of the source: active = growth inhibition above about 70%; inactive = the rest.
Outcome codes: active, inactive

{"compound": "CCCCCCCCCCCCNC(=O)NCC(OCC)OCC", "label.class": "active"}
{"compound": "CCOC(=O)c1[nH]c(Br)c(-c2ccc(OC)c(OC)c2)c1Br", "label.class": "active"}
{"compound": "CCCN(CCC)C(=O)CCC(C)=O", "label.class": "inactive"}
{"compound": "COc1ccc2c(c1)CCC1C2CCC2(C)C(=O)C(SC3=NC=NC4=NC=NC43)CC12 (stereo not given)", "label.class": "active"}
{"compound": "Cc1ccc(S(=O)(=O)C(=S)Sc2ccccc2)cc1", "label.class": "active"}
{"compound": "O=S(=O)(CC(Br)c1ccccc1)CC(Br)c1ccccc1 (stereo not given)", "label.class": "inactive"}
{"compound": "O=C(c1ccc(Cl)c([N+](=O)[O-])c1)c1ccc(Cl)c([N+](=O)[O-])c1", "label.class": "active"}
{"compound": "COC(=O)N1C2C=CC(=O)C(C=C2)N1C(=O)OC (stereo not given)", "label.class": "active"}
{"compound": "CC(C)CCCC(C)C1CCC2(C)C3=CCC4C(C)(CCC(O)C4(C)C)C3=CCC12C (stereo not given)", "label.class": "active"}
{"compound": "CCCCCCN(CCCCCC)CCC(=O)c1ccc2cc(Cl)c3ccccc3c2c1", "label.class": "active"}
{"compound": "O=C(O)c1c(Br)c(Br)c(Br)c(Br)c1-c1c2ccc(=O)cc-2oc2cc(O)ccc12", "label.class": "active"}
{"compound": "CC(C)c1ccc(O)c(O)c(=O)c1 (tested in a mixture with another compound)", "label.class": "active"}
{"compound": "CC(C)OP(=O)(CCCCCCCCC/C=C/c1ccc2c(c1)OCCOCCOCCOCCO2)OC(C)C", "label.class": "active"}
{"compound": "CCCCCCC(=O)CCCCCC/C=C\\CC1OC(=O)C(N)(CO)C1O (stereo not given)", "label.class": "active"}
{"compound": "O=[N+]([O-])c1cccc2c[n+](Cc3ccccc3)ccc12", "label.class": "inactive"}
{"compound": "CCCc1cc2c(cc1O)CC[C@@H]1[C@@H]2CC[C@]2(C)[C@@H](O)CC[C@@H]12", "label.class": "active"}
{"compound": "CN(C)C1CCC2C(=C1OC(=O)c1ccccc1)C=Cc1ccccc12 (stereo not given)", "label.class": "inactive"}
{"compound": "O=C(CNC(=O)Nc1ccc(NC(=O)NCC(=O)Nc2ccc(C3=NCCN3)cc2)cc1)Nc1ccc(C2=NCCN2)cc1", "label.class": "inactive"}
{"compound": "O=C(CC(=O)c1ccc(O)cc1)c1ccccc1", "label.class": "active"}
{"compound": "CCCCCCCCC1OC1CCCCCCCC(=O)OCC1CO1 (stereo not given)", "label.class": "inactive"}
{"compound": "CN(C)CCCC(C#N)(CCCN(C)C)c1ccccc1", "label.class": "inactive"}
{"compound": "Cn1c(=S)c2[nH]c(=S)[nH]c2n(C)c1=O", "label.class": "active"}
{"compound": "CN(C(=O)c1cccs1)C(=S)N1CCN(c2ccccc2)CC1", "label.class": "active"}
{"compound": "C=C1C(=O)C23C(O)C1CC[C@H]2C12CCCC(C)(COC(C)=O)[C@H]1[C@H](O)[C@]3(O)OC2 (stereo not given in full)", "label.class": "active"}
{"compound": "Cc1cc(C)c(CCCC(=O)c2c(C)cc(C)cc2C)c(C)c1", "label.class": "inactive"}
{"compound": "C[N+]1(C)C/C(=C\\C=C\\c2ccccc2)C(=O)/C(=C/C=C/c2ccccc2)C1", "label.class": "inactive"}
{"compound": "Cc1ccccc1C(=O)c1ccc(O)c2ccccc12", "label.class": "active"}
{"compound": "COc1ccc(CCC2(C)OCCC(C)O2)cc1 (stereo not given)", "label.class": "active"}
{"compound": "Nc1ccc2c(c1)C(=O)c1ccccc1-2", "label.class": "inactive"}
{"compound": "NNc1ccccc1F", "label.class": "active"}
{"compound": "CCCCCCCCCCCCCCC(O)C(=O)O (stereo not given)", "label.class": "inactive"}
{"compound": "O=c1ccnc(Nc2ccc[nH]c2=S)[nH]1", "label.class": "inactive"}
{"compound": "O[Si](O)(c1ccccc1)c1ccccc1", "label.class": "active"}
{"compound": "CN1CCN(CC(C(=O)O)(c2ccccc2)c2ccccc2)CC1", "label.class": "inactive"}
{"compound": "CCCNC(=O)C(=O)NNc1ccccc1", "label.class": "active"}
{"compound": "c1cc[c]([Sn]([S]c2cccc3cccnc23)([c]2ccccc2)[c]2ccccc2)cc1", "label.class": "active"}
{"compound": "O=C(/C=C/c1ccccc1)NOC(=O)/C=C/c1ccccc1", "label.class": "active"}
{"compound": "Cn1c(=O)[nH]c2nnc(-c3ccccc3)nc2c1=O", "label.class": "active"}
{"compound": "CCCC/C=C1\\CCC(CN2CCCCC2)C1=O (stereo not given)", "label.class": "active"}
{"compound": "CC(=O)NCCN(C)C", "label.class": "inactive"}
{"compound": "C[n+]1c(/C=C/c2cccc([N+](=O)[O-])c2)sc2ccccc21", "label.class": "active"}
{"compound": "C=C(CS(=O)(=O)c1ccccc1)[P+](c1ccccc1)(c1ccccc1)c1ccccc1", "label.class": "active"}
{"compound": "COc1ccccc1N=Nc1c(N)nc(N)[nH]c1=O", "label.class": "inactive"}
{"compound": "COc1c(I)cc(I)c(O)c1I", "label.class": "active"}
{"compound": "Cc1c(N)nc(C2CC(=O)N2CC(N)C(N)=O)nc1C(=O)NC(C(=O)NC(C)C(O)C(C)C(=O)NC(C(=O)NCCc1nc(-c2nc(C(=O)NCCCNC3CCCC3)cs2)cs1)C(C)O)C(OC1OC(CO)C(O)C(O)C1OC1OC(CO)C(O)C(OC(N)=O)C1O)c1cnc[nH]1 (stereo not given)", "label.class": "active"}

====

Assay: NCI Yeast Anticancer Drug Screen. Data for the mec2-1 strain (AID 157)
Details: S. cerevisiae mec2-1 strain, at 50.0 µM, stronger effect = higher value
Method: Growth inhibition of yeast strains with defined genetic alterations is measured as a screen for potential anti-cancer activity. Selected strains with alterations in DNA damage repair or cell cycle control were exposed to compounds and growth inhibition was measured relative to vehicle treated controls. The strain used in this assay is mec2-1
The panel holds about 79,000 compounds, 15% with a hit somewhere; the sample as a whole holds those more often.
measured.metric: growth inhibition (%)

{"compound": "c1cc[c]([Sn]([CH]2c3ccccc3-c3ccccc32)([CH]2c3ccccc3-c3ccccc32)[CH]2c3ccccc3-c3ccccc32)cc1", "measured.metric": "growth inhibition", "output.unit": "%", "test.result": 98}
{"compound": "CCC(CO)Nc1nc2cc(Cl)ccc2c2ccc(Cl)cc12 (centres undefined)", "measured.metric": "growth inhibition", "output.unit": "%", "test.result": 94.8}
{"compound": "C1=c2ccccc2=C2C(=C(c3ccccc3)C(c3ccccc3)=NN2c2ccccc2)S1", "measured.metric": "growth inhibition", "output.unit": "%", "test.result": -18.6}
{"compound": "COc1cc(CNC(=O)CCCCCCCC/C=C/Br)ccc1O", "measured.metric": "growth inhibition", "output.unit": "%", "test.result": 85.8}
{"compound": "CCCC(O)CNCc1ccc(N(C)C)cc1 (centres undefined)", "measured.metric": "growth inhibition", "output.unit": "%", "test.result": -4.1}
{"compound": "CCOC(=O)/C=C(/Cl)C(=O)OCC", "measured.metric": "growth inhibition", "output.unit": "%", "test.result": 99.4}
{"compound": "Nc1ccc2c(c1)[nH]c(=O)c1ccc(Cl)cc12", "measured.metric": "growth inhibition", "output.unit": "%", "test.result": 90.5}
{"compound": "C=CCOC(=O)C#CCCCC", "measured.metric": "growth inhibition", "output.unit": "%", "test.result": 19.6}
{"compound": "CCc1cccc(C)c1NC(=O)C(=O)C(C#N)c1ccc(C)cc1 (centres undefined)", "measured.metric": "growth inhibition", "output.unit": "%", "test.result": 13.2}
{"compound": "COc1ccc(C(c2cc3c(cc2O)OCO3)N2CCCC2)c(OC)c1 (centres undefined)", "measured.metric": "growth inhibition", "output.unit": "%", "test.result": 98.2}
{"compound": "CCCCCCN(CCCCCC)CCC(=O)c1ccc2cc(Cl)c3ccccc3c2c1", "measured.metric": "growth inhibition", "output.unit": "%", "test.result": 82}
{"compound": "NNc1c(Cl)cc(Cl)cc1Cl", "measured.metric": "growth inhibition", "output.unit": "%", "test.result": 98.9}
{"compound": "CCC[CH2][Sn]([CH2]CCC)([O]C(=O)C1CCC(=O)N1)[O]C(=O)C1CCC(=O)N1 (centres undefined)", "measured.metric": "growth inhibition", "output.unit": "%", "test.result": 90.7}
{"compound": "COc1cc(OC(C)C)cc2c1C(=O)C(C(O)(O)C(F)(F)F)=CC2=O", "measured.metric": "growth inhibition", "output.unit": "%", "test.result": 85.5}
{"compound": "O=C(Nc1c(Cl)cccc1Cl)OCc1ccc2c(c1)OCO2", "measured.metric": "growth inhibition", "output.unit": "%", "test.result": 48.6}
{"compound": "COc1ccc(C2=C(Cl)C(=O)N(c3ccc(OC)cc3)C(=O)C2(Cl)Cl)cc1", "measured.metric": "growth inhibition", "output.unit": "%", "test.result": 97.8}
{"compound": "CCC(CO)Nc1nc2ccc(Br)cc2c2ccccc12 (centres undefined)", "measured.metric": "growth inhibition", "output.unit": "%", "test.result": 49.5}
{"compound": "O=C(Nc1ccc(Cl)cc1)NS(=O)(=O)c1ccc2c(c1)CCC2", "measured.metric": "growth inhibition", "output.unit": "%", "test.result": 39.4}
{"compound": "Oc1c(Br)cc(Cl)cc1Br", "measured.metric": "growth inhibition", "output.unit": "%", "test.result": 98}
{"compound": "O=C1c2ccc(O)c(O)c2C(=O)c2cccc(O)c21", "measured.metric": "growth inhibition", "output.unit": "%", "test.result": 3.9}
{"compound": "O=C(CBr)Oc1ccc(-c2cccc(Br)c2)cc1", "measured.metric": "growth inhibition", "output.unit": "%", "test.result": 99.5}
{"compound": "C=CCNC(=O)c1ccccc1C(=O)O", "measured.metric": "growth inhibition", "output.unit": "%", "test.result": 36.6}
{"compound": "COc1ccc(C2=C(Cl)C(=O)N(c3ccc(O)cc3)C(=O)C2(Cl)Cl)cc1", "measured.metric": "growth inhibition", "output.unit": "%", "test.result": 59.7}
{"compound": "CCNC(=O)COc1ccc(Cl)cc1Cl", "measured.metric": "growth inhibition", "output.unit": "%", "test.result": -19.4}
